Molecular target: UniProtKB Q9NR97
Sequence (Q9NR97 27-1041): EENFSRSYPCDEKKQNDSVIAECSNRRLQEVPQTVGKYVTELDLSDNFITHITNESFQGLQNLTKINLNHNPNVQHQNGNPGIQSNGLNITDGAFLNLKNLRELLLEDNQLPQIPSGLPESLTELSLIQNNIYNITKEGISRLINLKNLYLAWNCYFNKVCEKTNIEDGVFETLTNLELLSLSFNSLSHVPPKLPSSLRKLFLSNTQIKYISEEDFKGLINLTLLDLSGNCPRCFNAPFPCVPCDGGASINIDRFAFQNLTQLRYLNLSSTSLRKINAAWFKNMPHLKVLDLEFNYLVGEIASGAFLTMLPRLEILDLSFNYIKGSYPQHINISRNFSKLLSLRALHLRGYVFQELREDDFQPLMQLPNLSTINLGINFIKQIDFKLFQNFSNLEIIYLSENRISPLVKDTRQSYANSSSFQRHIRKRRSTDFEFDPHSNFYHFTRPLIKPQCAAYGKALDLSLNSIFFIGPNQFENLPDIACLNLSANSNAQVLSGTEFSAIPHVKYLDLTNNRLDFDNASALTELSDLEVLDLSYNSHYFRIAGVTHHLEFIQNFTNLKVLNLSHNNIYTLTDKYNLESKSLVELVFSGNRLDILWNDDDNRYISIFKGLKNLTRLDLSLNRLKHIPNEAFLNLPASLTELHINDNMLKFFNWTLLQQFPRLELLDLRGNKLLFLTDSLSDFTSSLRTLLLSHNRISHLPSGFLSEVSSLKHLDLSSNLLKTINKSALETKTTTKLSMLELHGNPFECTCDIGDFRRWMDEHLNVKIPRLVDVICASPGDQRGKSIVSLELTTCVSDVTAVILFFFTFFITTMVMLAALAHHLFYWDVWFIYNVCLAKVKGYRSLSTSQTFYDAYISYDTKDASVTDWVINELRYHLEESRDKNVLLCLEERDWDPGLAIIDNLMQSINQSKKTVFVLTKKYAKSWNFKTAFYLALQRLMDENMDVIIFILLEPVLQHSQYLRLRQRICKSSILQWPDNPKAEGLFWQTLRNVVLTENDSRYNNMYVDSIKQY
Experiment: TLR-8/NF-κB/SEAP reporter assay in HEK293 cells, agonist mode
Settings: read-out: TLR-8 reporter cell activity, EC50; HEK-SEAP reporter cells, agonist
metric_name: EC50 (µM)
Respond with the bare value in µM.

*Q* Look up EC50: COC(=O)c1ccc2c(c1)nc(N)c1nc(CC3CC3)n(CC(C)O)c12 (stereo not shown)
*A* 18.8

----------
Biological target: human TLR-7 (Homo sapiens)
Sequence (Q9NYK1 27-1049): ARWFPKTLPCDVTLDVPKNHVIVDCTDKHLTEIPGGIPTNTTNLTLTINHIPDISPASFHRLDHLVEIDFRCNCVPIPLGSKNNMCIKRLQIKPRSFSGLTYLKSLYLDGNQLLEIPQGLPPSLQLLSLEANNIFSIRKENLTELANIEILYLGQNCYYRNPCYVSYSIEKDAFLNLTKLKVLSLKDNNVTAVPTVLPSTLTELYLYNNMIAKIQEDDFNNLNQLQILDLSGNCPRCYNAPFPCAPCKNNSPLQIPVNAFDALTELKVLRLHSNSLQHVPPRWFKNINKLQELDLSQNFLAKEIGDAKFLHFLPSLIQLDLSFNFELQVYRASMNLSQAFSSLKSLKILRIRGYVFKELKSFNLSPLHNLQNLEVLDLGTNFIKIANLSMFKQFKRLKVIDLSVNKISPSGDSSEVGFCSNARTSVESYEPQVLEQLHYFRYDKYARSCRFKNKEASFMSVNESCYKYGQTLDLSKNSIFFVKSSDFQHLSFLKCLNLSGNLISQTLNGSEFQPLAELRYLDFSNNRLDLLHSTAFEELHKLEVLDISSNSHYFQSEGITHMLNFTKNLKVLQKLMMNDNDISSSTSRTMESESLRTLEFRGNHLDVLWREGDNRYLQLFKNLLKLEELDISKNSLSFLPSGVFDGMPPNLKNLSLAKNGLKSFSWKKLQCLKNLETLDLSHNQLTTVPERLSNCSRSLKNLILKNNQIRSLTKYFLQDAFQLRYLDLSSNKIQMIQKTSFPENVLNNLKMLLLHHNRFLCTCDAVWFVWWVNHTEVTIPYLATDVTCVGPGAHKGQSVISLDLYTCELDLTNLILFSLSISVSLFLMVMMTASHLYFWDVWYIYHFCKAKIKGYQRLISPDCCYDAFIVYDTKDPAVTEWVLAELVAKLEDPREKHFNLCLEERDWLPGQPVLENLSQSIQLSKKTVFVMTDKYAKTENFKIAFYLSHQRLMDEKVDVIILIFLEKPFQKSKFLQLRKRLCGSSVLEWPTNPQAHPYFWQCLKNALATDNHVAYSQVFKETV
Test: TLR-7/NF-κB/SEAP reporter assay in HEK293 cells, agonist mode
metric_name: EC50
Provide the measurement as a number trailed by its unit.

*Q* Field request: EC50 | item: COC(=O)c1ccc2c(c1)nc(N)c1nc(CC3CC3)n(CC(C)O)c12 (stereo not shown)
*A* 13.4 µM

Entry source: patent US20250025447A1
